test: Absorption and distribution: concentration in blood and organs after oral administration, bioassay by cup method; assay type: in vivo; conditions: rat; rats, fasted, 10 mg/kg oral, lung, 2 hr after administration; Mean ± S.D. (n=5); read-out: Concentration in organs: Lung
Structures can show the parent of a compound that is named as a salt.
property-label: concentration at 2 h

CCNCC1CCN(c2c(F)cc3c(=O)c(C(=O)O)cn(C4CC4)c3c2Cl)C1 (centres unmarked)
1540 ng/g

Now for a further molecule.
Reported concentration at 2 h, molecule CCNCC1CCN(c2c(F)cc3c(=O)c(C(=O)O)cn(C4CC4)c3c2F)C1 (centres unmarked) [Example 2, hydrochloride] : ____
1920 ng/g

----------
Please provide measured MIC for the entries that follow.
tested on: S. pyogenes 4340; assay: In vitro antibacterial activity, MIC (clinical isolates); format: cell-based; conditions: Streptococcus pyogenes; S. pyogenes 4340; 10^6 cells/ml; clinical isolate; read-out: MIC
Structures can show the parent of a compound that is named as a salt.
Give bare numbers, in µg/mL.

Field: example entries. Status: answers known.
CCNCC1CCN(c2c(F)cc3c(=O)c(C(=O)O)cn(C4CC4)c3c2Cl)C1 (stereo not shown) [Example 13]
0.05
CCNCC1CCN(c2c(F)cc3c(=O)c(C(=O)O)cn(CC)c3c2F)C1 (stereo not shown) [Ref.1, reference compound]
0.2
CNCC1CCN(c2c(F)cc3c(=O)c(C(=O)O)cn(C4CC4)c3c2Cl)C1 (stereo not shown) [Example 12, hydrochloride]
0.05
CCNCC1CCN(c2c(F)cc3c(=O)c(C(=O)O)cn(C4CC4)c3c2Br)C1 (stereo not shown) [Example 17]
0.05
CNCC1CCN(c2cc3c(cc2F)c(=O)c(C(=O)O)cn3C2CC2)C1 (stereo not shown) [Example 9, hydrochloride]
0.2
CN(C)CC1CCN(c2c(F)cc3c(=O)c(C(=O)O)cn(C4CC4)c3c2Cl)C1 (stereo not shown) [Example 20]
0.05
CCNCC1CCN(c2c(F)cc3c(=O)c(C(=O)O)cn(C4CC4)c3c2F)C1 (stereo not shown) [Example 2, hydrochloride]
0.1
CC(C)NCC1CCN(c2c(F)cc3c(=O)c(C(=O)O)cn(C4CC4)c3c2F)C1.Cl (stereo not shown) [Example 11]
0.2

Provide MIC for all items below, preserving their order.
1. CNCC1CCN(c2c(F)cc3c(=O)c(C(=O)O)cn(C4CC4)c3c2F)C1 (stereo not shown) [Example 8, hydrochloride]
2. CNCC1CCN(c2c(F)cc3c(=O)c(C(=O)O)cn(C4CC4)c3c2Br)C1 (stereo not shown) [Example 16]
3. NCC1CCN(c2c(F)cc3c(=O)c(C(=O)O)cn(C4CC4)c3c2Br)C1 (stereo not shown) [Example 15]
4. NCC1CCN(c2c(F)cc3c(=O)c(C(=O)O)cn(C4CC4)c3c2F)C1 (stereo not shown) [Example 1, hydrochloride]
5. NCC1CCN(c2c(F)cc3c(=O)c(C(=O)O)cn(C4CC4)c3c2Cl)C1 (stereo not shown) [Example 14, hydrochloride]
6. CCCNCC1CCN(c2c(F)cc3c(=O)c(C(=O)O)cn(C4CC4)c3c2F)C1 (stereo not shown) [Example 10, hydrochloride]
7. CCNCC1CCN(c2cc3c(cc2F)c(=O)c(C(=O)O)cn3C2CC2)C1.Cl (stereo not shown) [Example 7]
8. CN(C)CC1CCN(c2c(F)cc3c(=O)c(C(=O)O)cn(C4CC4)c3c2F)C1 (stereo not shown) [Example 21]

1. 0.05
2. 0.05
3. 0.05
4. 0.05
5. 0.05
6. 0.2
7. 0.2
8. 0.1

----------
Record form. Attribute: concentration at 24 h. Fill in for each entry.
assay: Urinary and bile excretion after oral administration, bioassay by cup method; type: in vivo; conditions: rat; fasted rats, 10 mg/kg oral; bile 6 ~ 24 hr; Mean ± S.D. (n=5); read-out: Concentration, bile
Structures can show the parent of a compound that is named as a salt.
Quick note: number first, unit second.

CCNCC1CCN(c2c(F)cc3c(=O)c(C(=O)O)cn(C4CC4)c3c2Cl)C1 (centres unmarked) [Example 13]
11.3 µg/mL

Next up:
# input molecule: CCNCC1CCN(c2c(F)cc3c(=O)c(C(=O)O)cn(C4CC4)c3c2F)C1 (centres unmarked) [Example 2, hydrochloride] ; wanted: its concentration at 24 h
10.1 µg/mL

----------
So I've got a bunch of compounds here, and I need their concentration at 4 h values.
test: Absorption and distribution: concentration in blood and organs after oral administration, bioassay by cup method; type: in vivo; conditions: rat; rats, fasted, 10 mg/kg oral, liver, 4 hr after administration; Mean ± S.D. (n=5); read-out: Concentration in organs: Liver
Counter-ions that a name gives are not always drawn.
Give bare numbers, in ng/g.

For each of the compounds below, note its concentration at 4 h.
1. CCNCC1CCN(c2c(F)cc3c(=O)c(C(=O)O)cn(C4CC4)c3c2F)C1 (centres unmarked) [Example 2, hydrochloride]
2. CCNCC1CCN(c2c(F)cc3c(=O)c(C(=O)O)cn(C4CC4)c3c2Cl)C1 (centres unmarked)

1. 2360
2. 1340

----------
Exercise: for every item that follows, state its recorded concentration at 6 h.
assay: Urinary and bile excretion after oral administration, bioassay by cup method; type: in vivo; settings: rat; fasted rats, 10 mg/kg oral; bile 3 ~ 6 hr; Mean ± S.D. (n=5); read-out: Concentration, bile
Where a name gives a salt, the structure may show the parent alone.
Give bare numbers, in ng/mL.

CCNCC1CCN(c2c(F)cc3c(=O)c(C(=O)O)cn(C4CC4)c3c2Cl)C1 (centres unmarked) [Example 13]
19700

// next item, concentration at 6 h requested
Would you mind telling me what concentration at 6 h value was observed for CCNCC1CCN(c2c(F)cc3c(=O)c(C(=O)O)cn(C4CC4)c3c2F)C1 (centres unmarked) [Example 2, hydrochloride] ?
16100

----------
I'd be grateful if you could share measured dose excreted at 6 h for these entries.
experiment: Urinary and bile excretion after oral administration, bioassay by cup method; type: in vivo; conditions: rat; fasted rats, 10 mg/kg oral; urine 0 ~ 6 hr; Mean ± S.D. (n=5); read-out: Recovery, urine
Counter-ions that a name gives are not always drawn.
Answers are plain numbers, in %.

CCNCC1CCN(c2c(F)cc3c(=O)c(C(=O)O)cn(C4CC4)c3c2Cl)C1 (centres unmarked)
4.8

Okay, now this molecule:
Can you share its dose excreted at 6 h? I mean this molecule: CCNCC1CCN(c2c(F)cc3c(=O)c(C(=O)O)cn(C4CC4)c3c2F)C1 (centres unmarked) [Example 2, hydrochloride]
6.7

----------
tested on: Fusobacterium varium KYA 8501; assay: In vitro antibacterial activity, MIC (standard strain); format: cell-based; settings: Fusobacterium varium, KYA8501, Fusobacterium varium KYA 8501; 10^6 cells/ml; standard strain; read-out: MIC
Counter-ions that a name gives are not always drawn.
property-label: log10 MIC (log10 of the value in µg/mL)
Log10 applied to MIC; unit prior to transform: µg/mL.

Below, 8 molecules whose answers are already recorded.
CN(C)CC1CCN(c2c(F)cc3c(=O)c(C(=O)O)cn(C4CC4)c3c2F)C1 (stereo not drawn)
0.50
CNCC1CCN(c2c(F)cc3c(=O)c(C(=O)O)cn(C4CC4)c3c2Br)C1 (stereo not drawn)
-0.41
CCNCC1CCN(c2c(F)cc3c(=O)c(C(=O)O)cn(C4CC4)c3c2Br)C1 (stereo not drawn)
-0.41
CN(C)CC1CCN(c2c(F)cc3c(=O)c(C(=O)O)cn(C4CC4)c3c2Cl)C1 (stereo not drawn)
-0.11
CCn1cc(C(=O)O)c(=O)c2cc(F)c(N3CCNCC3)cc21 [NFLX, Norfloxacin, reference compound]
2.00
CNCC1CCN(c2c(F)cc3c(=O)c(C(=O)O)cn(C4CC4)c3c2F)C1 (stereo not drawn) [Example 8, hydrochloride]
-0.11
CCCNCC1CCN(c2c(F)cc3c(=O)c(C(=O)O)cn(C4CC4)c3c2F)C1 (stereo not drawn) [Example 10, hydrochloride]
0.80
CC(C)NCC1CCN(c2c(F)cc3c(=O)c(C(=O)O)cn(C4CC4)c3c2F)C1.Cl (stereo not drawn)
0.50

Name the recorded log10 MIC for NCC1CCN(c2c(F)cc3c(=O)c(C(=O)O)cn(C4CC4)c3c2Cl)C1 (stereo not drawn) [Example 14, hydrochloride] .
-0.41

----------
test system: E. coli ML 4707; experiment: In vitro antibacterial activity, MIC (standard strain); type: cell-based; settings: Escherichia coli, ML4707; E. coli ML 4707; 10^6 cells/ml; standard strain; read-out: MIC
Structures can show the parent of a compound that is named as a salt.
property-label: MIC

Would you please look over these solved cases?
CNCC1CCN(c2cc3c(cc2F)c(=O)c(C(=O)O)cn3C2CC2)C1 (stereo not shown) [Example 9, hydrochloride]
0.1 µg/mL
CNCC1CCN(c2c(F)cc3c(=O)c(C(=O)O)cn(C4CC4)c3c2Cl)C1 (stereo not shown) [Example 12, hydrochloride]
0.025 µg/mL
CCNCC1CCN(c2c(F)cc3c(=O)c(C(=O)O)cn(C4CC4)c3c2Cl)C1 (stereo not shown)
0.025 µg/mL

Below: the item to evaluate.
# returns recorded MIC (system: E. coli ML 4707) for CCNCC1CCN(c2c(F)cc3c(=O)c(C(=O)O)cn(C4CC4)c3c2F)C1 (stereo not shown) [Example 2, hydrochloride]
0.025 µg/mL
